Measured values drawn from patent US7482321B2 for this set.

Task for the reader: assign each of the following substances its reported half-life.
- Test name: Pharmacokinetics after single intravenous dose in rats
- Assay context: rat, in vivo, iv, 10 ug/kg, t½, individual rats; single i.v. 10 μg/kg, Sprague Dawley rats
Ends that are not written are not given here.
Hi! Could you send only the number? It should be in min, unit omitted.

Incoming: Look up half-life: HVEGTFTSDVSSYLEEQAAKEFIAWLIKGGPSSGDPPPS-NH2 [Compound 1]
Outgoing: 13.1

Incoming: Look up half-life: HVEGTFTSDVSSYLEEQAAKEFIAWLVKGRGSSGAPPPS [Compound 3]
Outgoing: 11.6

* * *

- Test name: Pharmacokinetics after single intravenous dose in rats
- Assay context: Sprague Dawley, rat, plasma, iv, 10 ug/kg, Plasma Concentration, 120 min; individual rats; single i.v. 10 μg/kg
Ends that are not written are not given here.
Quantity name: level at 2 h

Incoming: Look up level at 2 h: HVEGTFTSDVSSYLEEQAAKEFIAWLIKGGPSSGDPPPS-NH2 [Compound 1]
Outgoing: < 0.15 ng/mL

Incoming: Look up level at 2 h: HVEGTFTSDVSSYLEEQAAKEFIAWLVKGRGSSGAPPPS [Compound 3]
Outgoing: < 0.15 ng/mL

* * *

- Test name: Pharmacokinetics after single intravenous dose in rats
- Assay context: rat, in vivo, iv, 10 ug/kg, Cmax, individual rats; single i.v. 10 μg/kg, Sprague Dawley rats
Ends that are not written are not given here.
Quantity name: Cmax (ng/mL)
Hi! Could you send only the number? It should be in ng/mL, unit omitted.

Incoming: Look up Cmax: HVEGTFTSDVSSYLEEQAAKEFIAWLIKGGPSSGDPPPS-NH2 [Compound 1]
Outgoing: 24.6

Incoming: Look up Cmax: HVEGTFTSDVSSYLEEQAAKEFIAWLVKGRGSSGAPPPS [Compound 3]
Outgoing: 23.6

* * *

- Assay context: rat, in vivo, iv, 10 ug/kg, Cl
Ends that are not written are not given here.
Quantity name: clearance (mL/min/kg)
Hi! Could you send only the number? It should be in mL/min/kg, unit omitted.

Incoming: Look up clearance: HVEGTFTSDWSSYLEEQAAKEFIAWLIKGRGSSGAPPPS [Compound 5]
Outgoing: 13.4

* * *

- Test name: in vivo
- Assay context: Sprague Dawley, rat, iv, 10 ug/kg, Plasma Concentration
Ends that are not written are not given here.
Quantity name: level at 2 h

Incoming: Look up level at 2 h: HVEGTFTSDWSSYLEEQAAKEFIAWLIKGRGSSGAPPPS [Compound 5]
Outgoing: < 0.15 ng/mL

* * *

- Test name: Dog hyperglycemic clamp study, GLP-1 peptide concentration
- Set-up: species or system dogs
- Assay context: in vivo, iv; infusion rate 1 pmol/kg/min i.v.; dog hyperglycemic clamp; after 60 minutes of infusion; mean ± SEM; read-out: Compound Concentration (t = 60′)
Ends that are not written are not given here.
Quantity name: level at time molar at 1 h (nM)
Hi! Could you send only the number? It should be in nM, unit omitted.

Incoming: Look up level at time molar at 1 h: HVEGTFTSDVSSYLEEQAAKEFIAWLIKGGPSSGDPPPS-NH2 [Compound 1]
Outgoing: 0.268

Incoming: Look up level at time molar at 1 h: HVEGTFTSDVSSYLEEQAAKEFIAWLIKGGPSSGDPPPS [Compound 2]
Outgoing: 0.204

* * *

- Test name: Dog hyperglycemic clamp study, GLP-1 peptide concentration
- Parameters: species or system dogs
- Assay context: dog, in vivo, iv, 3 pmol/kg/min
Ends that are not written are not given here.
Threshold check on level at time molar at 1 h: at or above 1 nM gives true (1), strictly below gives false (0).

Incoming: Threshold query (level at time molar at 1 h >= 1 nM) on HVEGTFTSDVSSYLEEQAVKEFIAWLIKGGPSSGAPPPS-NH2 [SEQ ID NO:13]
Outgoing: true (1)

Incoming: Threshold query (level at time molar at 1 h >= 1 nM) on HVEGTFTSDVSSYLEEQAVKEFIAWLIKGGPSSGAPPPSH [SEQ ID NO:43]
Outgoing: true (1)

Incoming: Threshold query (level at time molar at 1 h >= 1 nM) on HVEGTFTSDVSSYLEEQAVKEFIAWLIKGRGSSGAPPPS [SEQ ID NO:35]
Outgoing: true (1)

Incoming: Threshold query (level at time molar at 1 h >= 1 nM) on HVEGTFTSDVSSYLEEQAVKEFIAWLIKGGPSSGAPPPRG [SEQ ID NO:48]
Outgoing: true (1)

Incoming: Threshold query (level at time molar at 1 h >= 1 nM) on HVEGTFTSDVSSYLEEQAAKEFIAWLIKGGPSSGAPPPS [SEQ ID NO:55]
Outgoing: false (0)

Incoming: Threshold query (level at time molar at 1 h >= 1 nM) on HVEGTFTSDVSSYLEEQAVKEFIAWLIKGGPSSGAPPPS [SEQ ID NO:42]
Outgoing: true (1)

* * *

- Test name: Pharmacokinetics after single intravenous dose in rats
- Assay context: Sprague Dawley, rat, plasma, iv, 10 ug/kg, Plasma Concentration, 15 min; individual rats; single i.v. 10 μg/kg
Ends that are not written are not given here.
Quantity name: level at 0.25 h (ng/mL)
Hi! Could you send only the number? It should be in ng/mL, unit omitted.

Incoming: Look up level at 0.25 h: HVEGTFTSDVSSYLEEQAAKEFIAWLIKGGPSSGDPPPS-NH2 [Compound 1]
Outgoing: 10

Incoming: Look up level at 0.25 h: HVEGTFTSDVSSYLEEQAAKEFIAWLVKGRGSSGAPPPS [Compound 3]
Outgoing: 8.6

* * *

- Test name: Pharmacokinetics after single intravenous dose in rats
- Assay context: Sprague Dawley, rat, plasma, iv, 10 ug/kg, Plasma Concentration, 60 min; individual rats; single i.v. 10 μg/kg
Ends that are not written are not given here.
Quantity name: level at 1 h (ng/mL)
Hi! Could you send only the number? It should be in ng/mL, unit omitted.

Incoming: Look up level at 1 h: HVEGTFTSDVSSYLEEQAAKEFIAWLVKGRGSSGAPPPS [Compound 3]
Outgoing: 0.566

* * *

- Test name: Dog hyperglycemic clamp study, GLP-1 peptide concentration
- Parameters: species or system dogs
- Assay context: dog, in vivo, iv, 1 pmol/kg/min
Ends that are not written are not given here.
Quantity name: level at time molar at 1 h (nM)
Hi! Could you send only the number? It should be in nM, unit omitted.

Incoming: Look up level at time molar at 1 h: HVEGTFTSDVSSYLEEQAVKEFIAWLIKGGPSSGAPPPS-NH2 [SEQ ID NO:13]
Outgoing: 0.366

Incoming: Look up level at time molar at 1 h: HVEGTFTSDVSSYLEEQAAKEFIAWLIKGGPSSGAPPPS [SEQ ID NO:55]
Outgoing: 0.246

Incoming: Look up level at time molar at 1 h: HVEGTFTSDVSSYLEEQAVKEFIAWLIKGGPSSGAPPPS [SEQ ID NO:42]
Outgoing: 0.276

Incoming: Look up level at time molar at 1 h: HVEGTFTSDVSSYLEEQAVKEFIAWLIKGRGSSGAPPPS [SEQ ID NO:35]
Outgoing: 0.267

Incoming: Look up level at time molar at 1 h: HVEGTFTSDVSSYLEEQAVKEFIAWLIKGGPSSGAPPPRG [SEQ ID NO:48]
Outgoing: 0.227

Incoming: Look up level at time molar at 1 h: HVEGTFTSDVSSYLEEQAVKEFIAWLIKGGPSSGAPPPSH [SEQ ID NO:43]
Outgoing: 0.306

* * *

- Assay context: rat, in vivo, iv, 10 ug/kg, Vss
Ends that are not written are not given here.
Quantity name: Vd (L/kg)
Hi! Could you send only the number? It should be in L/kg, unit omitted.

Incoming: Look up Vd: HVEGTFTSDWSSYLEEQAAKEFIAWLIKGRGSSGAPPPS [Compound 5]
Outgoing: 0.179

* * *

- Test name: Pharmacokinetics after single intravenous dose in rats
- Assay context: Sprague Dawley, rat, plasma, iv, 10 ug/kg, Plasma Concentration, 5 min; individual rats; single i.v. 10 μg/kg
Ends that are not written are not given here.
Quantity name: level at 5 min (ng/mL)
Hi! Could you send only the number? It should be in ng/mL, unit omitted.

Incoming: Look up level at 5 min: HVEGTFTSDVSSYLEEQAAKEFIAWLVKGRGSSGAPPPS [Compound 3]
Outgoing: 23.6

Incoming: Look up level at 5 min: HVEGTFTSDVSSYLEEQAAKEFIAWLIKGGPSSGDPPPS-NH2 [Compound 1]
Outgoing: 24.6

* * *

- Assay context: rat, in vivo, iv, 10 ug/kg, AUC0-last
Ends that are not written are not given here.
Quantity name: AUC(0-t) (ng·h/mL)
Hi! Could you send only the number? It should be in ng·h/mL, unit omitted.

Incoming: Look up AUC(0-t): HVEGTFTSDWSSYLEEQAAKEFIAWLIKGRGSSGAPPPS [Compound 5]
Outgoing: 12.5

* * *

- Test name: Pharmacokinetics after single intravenous dose in rats
- Assay context: rat, in vivo, iv, 10 ug/kg, Vss, Mean of 4 rats; single i.v. 10 μg/kg, Sprague Dawley rats
Ends that are not written are not given here.
Quantity name: Vd (L/kg)
Hi! Could you send only the number? It should be in L/kg, unit omitted.

Incoming: Look up Vd: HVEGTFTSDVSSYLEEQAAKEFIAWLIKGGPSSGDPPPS-NH2 [Compound 1]
Outgoing: 0.264

Incoming: Look up Vd: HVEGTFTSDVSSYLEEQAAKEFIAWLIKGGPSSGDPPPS [Compound 2]
Outgoing: 0.482

Incoming: Look up Vd: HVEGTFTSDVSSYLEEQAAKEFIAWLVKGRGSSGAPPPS [Compound 3]
Outgoing: 0.277
